Known EC50 of a selection of molecules
- assay target: F508delCFTR (Homo sapiens, UniProt P13569, DEL508-508)
- Construct: expressed in transfected cells; host or cells: CFBE41o- human lung-derived epithelial cells (CFBE4lo-F508delCFTR-HRP), doxycycline-inducible
- Sequence (P13569 with tags, fused parts or gaps DEL508-508): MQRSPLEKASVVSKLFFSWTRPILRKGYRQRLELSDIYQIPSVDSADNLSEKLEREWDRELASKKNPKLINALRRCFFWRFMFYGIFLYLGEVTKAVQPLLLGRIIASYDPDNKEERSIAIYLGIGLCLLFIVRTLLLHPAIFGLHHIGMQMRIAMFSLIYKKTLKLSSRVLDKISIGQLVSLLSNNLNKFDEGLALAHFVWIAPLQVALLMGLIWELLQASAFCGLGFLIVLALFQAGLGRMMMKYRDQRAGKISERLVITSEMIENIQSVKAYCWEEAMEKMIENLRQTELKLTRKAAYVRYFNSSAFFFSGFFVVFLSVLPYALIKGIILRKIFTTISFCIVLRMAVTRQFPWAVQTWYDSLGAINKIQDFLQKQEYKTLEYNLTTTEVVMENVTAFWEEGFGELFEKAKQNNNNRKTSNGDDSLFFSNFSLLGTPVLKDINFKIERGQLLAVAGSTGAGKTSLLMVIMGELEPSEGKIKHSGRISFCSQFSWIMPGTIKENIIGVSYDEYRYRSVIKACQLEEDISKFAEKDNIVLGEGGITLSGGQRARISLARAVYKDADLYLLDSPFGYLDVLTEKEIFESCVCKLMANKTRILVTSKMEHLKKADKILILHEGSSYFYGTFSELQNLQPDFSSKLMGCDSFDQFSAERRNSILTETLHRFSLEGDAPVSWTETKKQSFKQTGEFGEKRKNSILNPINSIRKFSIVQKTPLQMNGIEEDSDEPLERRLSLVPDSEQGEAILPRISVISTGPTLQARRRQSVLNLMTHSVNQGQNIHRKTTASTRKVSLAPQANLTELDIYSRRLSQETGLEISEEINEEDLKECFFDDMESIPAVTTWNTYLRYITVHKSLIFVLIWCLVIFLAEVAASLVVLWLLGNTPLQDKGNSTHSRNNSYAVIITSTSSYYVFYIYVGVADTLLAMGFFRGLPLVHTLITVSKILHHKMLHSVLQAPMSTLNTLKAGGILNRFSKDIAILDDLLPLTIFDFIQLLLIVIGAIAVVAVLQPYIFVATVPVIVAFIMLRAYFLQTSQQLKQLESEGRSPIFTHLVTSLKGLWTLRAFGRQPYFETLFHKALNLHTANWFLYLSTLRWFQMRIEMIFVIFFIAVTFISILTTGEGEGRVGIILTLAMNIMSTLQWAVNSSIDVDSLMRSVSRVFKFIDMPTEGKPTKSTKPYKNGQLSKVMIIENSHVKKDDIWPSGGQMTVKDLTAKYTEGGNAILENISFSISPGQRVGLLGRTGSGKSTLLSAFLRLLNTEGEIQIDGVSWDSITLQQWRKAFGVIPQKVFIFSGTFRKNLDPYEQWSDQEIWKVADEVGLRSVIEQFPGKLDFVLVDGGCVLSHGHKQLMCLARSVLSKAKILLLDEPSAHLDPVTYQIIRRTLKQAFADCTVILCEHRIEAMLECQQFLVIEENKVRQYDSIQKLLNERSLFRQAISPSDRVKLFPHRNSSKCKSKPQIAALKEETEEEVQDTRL
- assay protocol: Cell Surface Expression-Horse Radish Peroxidase (CSE-HRP) Assay
- Assay type: cell-based
- condition parameters: test compound without co-corrector; read-out: EC50 (without co-corrector)

molecule	assay target	EC50
COc1ccc(C(C)(C)C)cc1CN[C@H]1[C@H](C(C)(C)C)[C@@H](C(=O)O)N(C(=O)C(OC)c2ccc(F)c(F)c2)[C@H]1c1ccccc1 (relative stereo)	F508delCFTR (Homo sapiens, UniProt P13569, DEL508-508)	< 1000 nM
COc1cc(C(F)(F)F)ccc1CN[C@H]1[C@H](C(C)(C)C)[C@@H](C(=O)O)N(C(=O)[C@@H]2CCCC(F)(F)C2)[C@H]1c1ccccc1	F508delCFTR (Homo sapiens, UniProt P13569, DEL508-508)	1000 to 10000 nM
COc1ccc(C(C)(C)C)cc1CN[C@H]1[C@H](C(C)(C)C)[C@@H](C(=O)O)N(C(=O)C2CCCCO2)[C@H]1c1ccccc1 (relative stereo) [Example I-193]	F508delCFTR (Homo sapiens, UniProt P13569, DEL508-508)	1000 to 10000 nM
COc1nc(C(C)(C)C)ccc1CN[C@H]1[C@H](C(C)(C)C)[C@@H](C(=O)O)N(C(=O)[C@@H]2CCCCO2)[C@H]1c1ccccc1F	F508delCFTR (Homo sapiens, UniProt P13569, DEL508-508)	1000 to 10000 nM
COc1ccc(C(C)(C)C)cc1CN[C@H]1[C@H](C(C)(C)C)[C@@H](C(=O)O)N(C(=O)C2CCC2)[C@H]1c1cccnc1N1CCC1	F508delCFTR (Homo sapiens, UniProt P13569, DEL508-508)	1000 to 10000 nM
COc1ccc(Cl)cc1CN[C@@H]1[C@@H](C)[C@H](C(=O)O)N(C(=O)N(C(C)C)C(C)C)[C@@H]1c1ccccc1 (racemic)	F508delCFTR (Homo sapiens, UniProt P13569, DEL508-508)	> 10000 nM
COc1ccc2c(c1)CCC2C(=O)N1[C@H](C(=O)O)[C@@H](C(C)(C)C)[C@H](NCc2cc(C(C)(C)C)ccc2OC)[C@@H]1c1ccccc1 (stereo partly shown)	F508delCFTR (Homo sapiens, UniProt P13569, DEL508-508)	< 1000 nM
COc1ccc(C(C)(C)C)cc1CN[C@H]1[C@H](C(C)(C)C)[C@@H](C(=O)O)N(C(=O)C2CCC(C(F)(F)F)CC2)[C@H]1c1ccccc1 (stereo partly shown)	F508delCFTR (Homo sapiens, UniProt P13569, DEL508-508)	1000 to 10000 nM
COc1nc(C(C)(C)C)ccc1CN[C@H]1[C@H](C(C)(C)C)[C@@H](C(=O)O)N(C(=O)[C@H](OC)c2ccccc2)[C@H]1c1ccccc1	F508delCFTR (Homo sapiens, UniProt P13569, DEL508-508)	< 1000 nM
COc1ccc(C2(C)CCC2)cc1CN[C@H]1[C@H](C(C)(C)C)[C@@H](C(=O)O)N(C(=O)[C@@H]2CCCCO2)[C@H]1c1cccnc1OC	F508delCFTR (Homo sapiens, UniProt P13569, DEL508-508)	1000 to 10000 nM
